Each recorded value in this set is attributed to patent US8153626B2.

In this section, each of the compounds is paired with its reported EC50.
# target_entity: human BRS3 (Homo sapiens, UniProt P32247)
# Construct: expressed in transfected cells
# Sequence (P32247 1-399): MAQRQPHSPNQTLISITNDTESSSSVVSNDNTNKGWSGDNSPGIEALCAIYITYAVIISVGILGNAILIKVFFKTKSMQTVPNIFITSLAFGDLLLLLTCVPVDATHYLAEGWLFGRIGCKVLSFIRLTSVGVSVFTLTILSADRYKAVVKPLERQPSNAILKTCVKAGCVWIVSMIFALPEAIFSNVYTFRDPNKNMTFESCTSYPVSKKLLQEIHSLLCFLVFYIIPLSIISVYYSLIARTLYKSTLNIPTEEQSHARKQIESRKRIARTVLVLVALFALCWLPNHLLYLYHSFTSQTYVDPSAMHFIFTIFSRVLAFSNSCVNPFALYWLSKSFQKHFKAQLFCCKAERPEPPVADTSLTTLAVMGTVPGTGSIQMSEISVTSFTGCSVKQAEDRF
# experiment_notes: Aequorin bioluminescent assay to measure intracellular Ca++ (HEK293AEQ cells)
# Type: cell-based
# experimental_context: Bombesin Subtype-3 Receptor agonism, method C; racemic mixture or the more potent enantiomer after HPLC separation; read-out: human BRS-3 EC50

>  <compound>
CC(C)(C)c1ccc(S(=O)(=O)N2Cc3ccc(C(F)(F)F)nc3Nc3ccc(-c4noc(CO)n4)cc32)cc1

>  <EC50 (nM)>
121

$$$$
>  <compound>
CC(C)(O)c1nc(-c2cccc3c2N(S(=O)(=O)c2ccc(C4(C(F)(F)F)CC4)cc2)Cc2ccc(C(F)(F)F)nc2N3)no1 (racemic)

>  <EC50 (nM)>
139

$$$$
>  <compound>
Cc1ccc2c(c1C)N(S(=O)(=O)c1ccc(C(C)(C)C)cc1)Cc1ccc(C(F)(F)F)nc1N2 (racemic)

>  <EC50 (nM)>
100

$$$$

###

# target_entity: human BRS3 (Homo sapiens, UniProt P32247)
# Construct: expressed in transfected cells
# experiment_notes: Aequorin bioluminescent assay to measure intracellular Ca++ (HEK293AEQ cells)
# Assay type: cell-based
# experimental_context: read-out: human BRS-3 EC50

>  <line_notation>
CC(C)(O)c1nc(C2(c3cccc4c3N(S(=O)(=O)c3ccc(OC(F)(F)F)cc3)Cc3ccc(C(F)(F)F)nc3N4)CCC2)no1

>  <EC50, nM>
94

$$$$

###

# target_entity: human BRS3 (Homo sapiens)
# Construct: expressed in transfected cells
# experiment_notes: [125I]-dY-peptide radioligand binding assay (filtration, membranes)
pIC50: −log10 of the molar value.

>  <compound>
CC(C)(O)c1nc(-c2cccc3c2N(S(=O)(=O)c2ccc(OC(F)(F)F)cc2)Cc2ccc(C(F)(F)F)nc2N3)no1 (racemic) [Example 1]

>  <pIC50>
8.44

$$$$
>  <compound>
Cc1ccc2c(c1C)N(S(=O)(=O)c1ccc(C(C)(C)C)cc1)Cc1ccc(C(F)(F)F)nc1N2 (racemic) [Example 251]

>  <pIC50>
9.00

$$$$
>  <compound>
CC(C)(C)c1ccc(S(=O)(=O)N2Cc3ccc(C(F)(F)F)nc3Nc3ccc4ncccc4c32)cc1 [Example 316]

>  <pIC50>
9.19

$$$$

###

In this section, each of the compounds is paired with its reported pEC50.
# target_entity: human BRS3 (Homo sapiens)
# Construct: expressed in transfected cells
# Sequence (P32247 1-399): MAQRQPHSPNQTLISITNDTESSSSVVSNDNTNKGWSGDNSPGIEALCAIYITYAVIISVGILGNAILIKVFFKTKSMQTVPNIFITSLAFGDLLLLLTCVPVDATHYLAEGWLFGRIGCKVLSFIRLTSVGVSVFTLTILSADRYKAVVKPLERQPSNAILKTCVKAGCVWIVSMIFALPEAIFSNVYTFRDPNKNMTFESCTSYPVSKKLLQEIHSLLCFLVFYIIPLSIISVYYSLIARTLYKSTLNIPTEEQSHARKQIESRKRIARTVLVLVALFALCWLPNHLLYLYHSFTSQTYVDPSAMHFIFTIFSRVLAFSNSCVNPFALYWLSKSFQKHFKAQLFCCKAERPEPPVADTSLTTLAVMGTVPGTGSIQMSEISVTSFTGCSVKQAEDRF
# experiment_notes: Aequorin bioluminescent assay to measure intracellular Ca++ (HEK293AEQ cells)
# Type: cell-based
# experimental_context: Bombesin Subtype-3 Receptor agonism, method C; racemic mixture or the more potent enantiomer after HPLC separation; read-out: human BRS-3 EC50
# Method: HEK293/AEQ cell lines stably expressing either human, rat or mouse BRS3 cDNA were generated using standard cell biology techniques and were used for all functional assays and to prepare membranes for the rat BRS3 binding assay. […] The Aequorin assay itself was performed in 96-well format using a Wallac Microbeta luminometer equipped with microinjector module. […] The cells (20,000 per well) were then injected in 0.1 mL ECB buffer and the bioluminescence monitored for 30 seconds. […]
pEC50: −log10 of the molar value.

>  <compound>
CC(C)(C)c1ccc(S(=O)(=O)N2Cc3ccc(C(F)(F)F)nc3Nc3ccc4ncccc4c32)cc1

>  <pEC50>
7.32

$$$$
>  <compound>
CC(C)(C)c1ccc(S(=O)(=O)N2Cc3ccc(C(F)(F)F)nc3Nc3cccc(-c4noc(CO)n4)c32)cc1 (racemic)

>  <pEC50>
7.47

$$$$
>  <compound>
CC(C)(C)c1ccc(S(=O)(=O)N2Cc3ccc(C(F)(F)F)nc3Nc3ccc(C(C)(C)C(=O)O)cc32)cc1

>  <pEC50>
6.89

$$$$
>  <compound>
Cc1ccc2c(n1)N(S(=O)(=O)c1ccc(C(C)(C)C)cc1)Cc1ccc(C(F)(F)F)nc1N2

>  <pEC50>
7.18

$$$$
>  <compound>
O=S(=O)(c1ccc(C(F)(F)F)cc1)N1Cc2ccc(C(F)(F)F)nc2Nc2cccc(-c3noc(CO)n3)c21 (racemic)

>  <pEC50>
7.28

$$$$
>  <compound>
O=S(=O)(c1ccc(OC(F)(F)F)cc1)N1Cc2ccc(C(F)(F)F)nc2Nc2cccc(-c3noc(CO)n3)c21 (racemic)

>  <pEC50>
7.48

$$$$
>  <compound>
CC(C)(O)c1nc(-c2cccc3c2N(S(=O)(=O)c2ccc(OC(F)(F)F)cc2)Cc2ccc(C(F)(F)F)nc2N3)no1 (racemic)

>  <pEC50>
7.14

$$$$
